Test: Metabolic stability in ICR mouse liver microsomes assessed as intrinsic clearance
Type: ADME, Microsome
Details: read-out: CLH
Below, each entry is listed alongside its reported CLint scaled.

compound	CLint scaled
CN1c2ccc(F)cc2C(=O)N2CCc3c([nH]c4ccc(O)cc34)C21 (configuration not stated)	555 mL/min/kg

The record that follows has no CLint scaled shown yet.
Given item CN1c2ccc(F)cc2C(=O)N2CCc3c([nH]c4ccc(OC(=O)/C=C/C(=O)OCc5cc6ccc(OCc7ccc([N+](=O)[O-])cc7)cc6oc5=O)cc34)C21 (configuration not stated) , the value recorded as its CLint scaled is 9.54 mL/min/kg

The reported measurements were obtained from ChEMBL document CHEMBL6182882.
